procedure.text: Aqueous solubility
Format: physicochemical
particulars: read-out: S
readout.name: solubility

Asked: Specify measured solubility for Cl.O=C(NCCCOc1ccc2[nH]c3nc(O)nc-3cc2c1)N1CCNCC1 .
Given back: > 20 mg/mL

Asked: Tell me solubility reported for Cl.Oc1nc2cc3cc(OCCCc4nnnn4C4CCN(CC5CCCCC5)CC4)ccc3[nH]c-2n1
Given back: > 10 mg/mL

Asked: Identify measured solubility associated with CC(C)CN1CCN(C(=O)NCCCOc2ccc3[nH]c4nc(O)nc-4cc3c2)CC1.Cl
Given back: > 20 mg/mL

Asked: Indicate its recorded solubility; the compound in question is CCOC(=O)N1CCC(S(=O)(=O)CCCCOc2ccc3[nH]c4nc(O)nc-4cc3c2)CC1
Given back: < 1 mg/mL
